Test: In vivo tissue distribution of radioactivity after intravenous administration
Design: species or system Sprague Dawley rats
Settings: liver, iv; rat, i.v., 2 min; read-out: Liver, Mean % Injected Dose/Gram
Procedure: In vivo distribution of a compound of the invention, [^18 F]-2β-carbo-2'-fluoroisopropoxy-3β-(4-iodophenyl)tropane (FIPIT) 8 (X=4-iodophenyl; Y=1'fluoro-isopropoxy) was measured, as well as brain PET imaging to determine suitability of the compound as a label. […] These studies provided a calculated binding constant for FIPIT 8 with dopamine transporter of 1.13 nM. […] Region of interest measurements determined striatal to cerebellum ratios to be 3.0 at 190 min post administration. […]
outcomeMeasure: tissue uptake at 2 min
Kindly write the number and append the unit.

Fill in tissue uptake at 2 min for record CC(C[18F])OC(=O)[C@H]1[C@@H](c2ccc(I)cc2)C[C@@H]2CC[C@H]1N2C (stereo partly shown) [[^18 F] FIPIT 8] 1.5 %ID/g
